Provide the reported Emax of each item.
- target_or_test_system: human sphingosine-1-phosphate receptor 1 (S1P1) (Homo sapiens, UniProt P21453)
- Sequence (P21453 whole entry): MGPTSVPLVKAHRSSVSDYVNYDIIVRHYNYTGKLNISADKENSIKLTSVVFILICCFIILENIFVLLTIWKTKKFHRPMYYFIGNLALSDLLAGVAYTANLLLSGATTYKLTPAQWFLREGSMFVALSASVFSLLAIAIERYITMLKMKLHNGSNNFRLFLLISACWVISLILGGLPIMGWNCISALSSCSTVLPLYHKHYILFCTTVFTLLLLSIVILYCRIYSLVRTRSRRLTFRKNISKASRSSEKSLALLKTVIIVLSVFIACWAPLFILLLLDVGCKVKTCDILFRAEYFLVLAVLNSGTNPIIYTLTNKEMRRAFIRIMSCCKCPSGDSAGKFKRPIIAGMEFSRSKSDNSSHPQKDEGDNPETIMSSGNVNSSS
- test_name: Inhibition of cAMP production (HTRF cAMP HiRange), S1P1 CHO-K1 cells
- Format: cell-based
- condition_parameters: CHO-K1; efficacy normalized to maximum efficacy of fingolimod; read-out: hS1P1 CAMP SPAN

Field: example entries. Status: answers known.
CC(C)(CO)n1nnc2cc(-c3noc(-c4ccccc4Cl)n3)ccc21; < 75%
CCCCC1CC(=O)c2ccc(-c3nc(-c4cccnc4)no3)cc2O1 (stereo not drawn); < 75%
CCC1(CC)CC(=O)c2cc(-c3nc(-c4ccnc(NS(C)(=O)=O)c4)no3)ccc2O1; > 75%
Cc1nc2cc(-c3nnc(-c4ccc(NCC(F)F)c(C#N)c4)o3)ccc2[nH]1; > 75%
CCC1(CC)CC(=O)c2cc(-c3nc(-c4cccnc4F)no3)ccc2O1; > 75%

Quick request: Emax for each listed item, please.
1. Cc1ccncc1-c1noc(-c2cnc3c(c2)nnn3C(C)C)n1
2. Cc1cn(C)nc1-c1noc(-c2ccc3c(c2)nnn3CC(C)(C)O)n1
3. CC(C)n1ccc2cc(-c3nc(-c4ccccc4F)ns3)ccc21
4. CCC1(CC)CC(=O)c2cc(-c3noc(-c4ccc(NCC5CC5)c(C#N)c4)n3)ccc2O1

Result:
["< 75%", "> 75%", "< 75%", "< 75%"]
